The origin of these recorded values is a melting point compilation (Tetko et al.; mined from patent text by program, amines drawn as free bases though some values may be those of a salt).

Listed here are compounds together with their documented melting point.
Readout kind: melting point

CCOC(=O)C(C)(C)Oc1ccc(CNc2ccccc2)cc1: 45 to 46 °C
N#Cc1ccc(Nc2ncc(Cl)c(O)n2)cc1: > 300 °C
Cc1ccc(C=CC(=O)CCCCCl)cc1: 79 to 82 °C
NC1=NN(c2nc3ccccc3s2)C(c2ccc(Cl)cc2)C1 (stereo not given): 273 to 275 °C
CNc1ncn(-c2c(C)cccc2Br)c(=O)n1: 238 to 240 °C
Cc1nnc2ccc(-c3cccc(Cl)c3)nn12: 165 to 167 °C
CCCCc1c2ccccc2c(C=O)c2ccccc12: 79 °C
CCNC(=O)Oc1ccccc1: 49 to 50 °C
c1ccc(Oc2ccc(N3CCNCC3)nn2)cc1: 96 to 97 °C
Cc1ccc(C(=O)c2cccc3c2CCC3C(N)=O)cc1 (stereo not given): 188 to 191 °C
CS(=O)(=O)c1ccc(-c2sc(Br)cc2-c2ccc(F)cc2)cc1: 141 to 145 °C
CC(C)(CC(O)(Cn1cc(Br)c(=O)c2sccc21)C(F)(F)F)c1cccc2c1OCO2 (stereo not given): 197 to 198 °C
O=C(SCC1C(=O)OCC1c1ccccc1)c1ccccc1F (stereo not given): 92 to 94 °C
Oc1ncc(-c2cccc(Cl)c2)cn1: 235 to 236 °C
O=C1CCCc2ccc([N+](=O)[O-])cc2N1: 224 to 226 °C
O=C(C=Cc1c(Cl)cccc1Cl)N1CCc2c([nH]c3ccccc23)C1c1ccc2c(c1)OCO2 (stereo not given): 118 to 120 °C
Cc1ccc2c(Cl)cc(I)c(O)c2n1: 85 to 93 °C
CC(O)(c1ccccc1)C1CCN1C(c1ccccc1)c1ccccc1 (stereo not given): 152 to 154 °C
Cc1nc(C)c(Cl)c(NCc2nccc(OCCCCSCCn3c([N+](=O)[O-])cnc3C)c2C)n1: 114 to 117 °C
O=C(Nc1ccc(S(=O)(=O)N2CCC(CNC[C@H](O)COc3ccc(O)cc3)CC2)cc1)Nc1ccccn1: 189 °C
CCc1cc2c([nH]c1=O)c(C)cc1cc(CBr)oc12: 237 to 240 °C
Cc1ccc(C2=CCC(C)(C)c3cc(C(=O)c4ccc5cc(C(=O)O)ccc5c4)ccc32)cc1: 267 °C
COc1nccc(F)c1NC(=O)OC(C)(C)C: 75 to 77 °C
CCCC(=NOCC)C1=C(O)CC(c2c(C)c3c(c(C)c2Cl)CC(C)(C)C3)CC1=O (stereo not given): 93 to 94 °C
CC(CO)Nc1cc(Oc2nn(C)c(C(F)(F)F)c2Cl)ccc1[N+](=O)[O-] (stereo not given): 118 to 120 °C
O=C(NCCOCCO[N+](=O)[O-])c1cncs1: 63 to 65 °C
CCOC(=O)C1=C(C(OCC)OCC)NC(C)=C(C(=O)OCCO)C1c1cccc([N+](=O)[O-])c1 (stereo not given): 98 to 100 °C
Nc1nc(N)nc(-c2ccc3c(c2)OCCO3)n1: 241 to 244 °C
N#Cc1ccc(-c2ccc(S(=O)(=O)CC(CSc3ccccc3)C(=O)O)cc2)cc1 (stereo not given): 243 to 247 °C
CCOC(=O)c1ccccc1OCCCCCCCCCCC(=O)CCCCOc1ccc(Cl)cc1: 95 to 96 °C
Oc1ccc(CCN(Cc2ccccc2)CC(O)COc2ccccc2)cc1 (stereo not given): 103 to 105 °C
CS(=O)(=O)C(C(=O)OCc1ccccc1)(C(=O)OCc1ccccc1)N1C(=O)C(NC(=O)Cc2ccccc2)C1CN=[N+]=[N-] (stereo not given): 114 to 115 °C
C=C(CC)CNc1cccc(-c2ccnc3c(C(=O)c4cccs4)cnn23)c1: 79 to 82 °C
CCCCCCCCCCCCCC(O)CNCCCCCCNCC(O)CCCCCCCCCCCCC (stereo not given): 117 to 124 °C
O=S(=O)(Nc1onc(-c2ccccc2)c1Br)c1ccccc1: 113 to 115 °C
